Experimental system: T1, recombinant human HER2 extracellular domain protein (human, UniProt P04626 23-652)
T1 construct: range 23-652; Range is printed for the immunogen/panning protein; also called ErbB2; recombinant HER2 protein
Test name: BLI, Protein A capture
Measurement name: Kd (nM)
Report as a plain number; the unit nM is understood.

{"columns": ["Binder", "Kd [nM]"],
 "data": [
  ["2126-Hu-H27 (antibody, IgG1, V domains shown, IgG1/Cκ) VH: QVQLVQSGSELKKPGASVKVSCKASGYTFTDYSMHWVRQAPGQGLEWMGWINTGTGEPTYADDFKGRFVFSLDTSVSTAYLQISSLKAEDTAVYFCVRVGRYDYAMDYWGQGTTVTVSS VL: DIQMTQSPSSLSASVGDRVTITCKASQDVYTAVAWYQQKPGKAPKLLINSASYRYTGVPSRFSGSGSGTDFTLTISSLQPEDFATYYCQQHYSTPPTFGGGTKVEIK", 1.67]
]}

Qu. Give the reported value of Kd for this record: 2126-Hu-L11 (antibody, IgG1, V domains shown, IgG1/Cκ) VH: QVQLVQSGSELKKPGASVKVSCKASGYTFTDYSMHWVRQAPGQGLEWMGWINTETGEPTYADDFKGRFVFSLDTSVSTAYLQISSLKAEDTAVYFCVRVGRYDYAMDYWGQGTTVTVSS VL: DIQMTQSPSSLSASVGDRVTITCKASQDVYTAVAWYQQKPGKAPKLLINSASQRYTGVPSRFSGSGSGTDFTLTISSLQPEDFATYYCQQHYSTPPTFGGGTKVEIK
Ans. 6.25

Qu. Please report the measured Kd for 2126-Hu-H50 (antibody, IgG1, V domains shown, IgG1/Cκ) VH: QVQLVQSGSELKKPGASVKVSCKASGYTFTDYSMHWVRQAPGQGLEWMGWINTETGEPTYADDFKGRFVFSLDTSVSTAYLQISSLKAEDTAVYFCVRVGYYDYAMDYWGQGTTVTVSS VL: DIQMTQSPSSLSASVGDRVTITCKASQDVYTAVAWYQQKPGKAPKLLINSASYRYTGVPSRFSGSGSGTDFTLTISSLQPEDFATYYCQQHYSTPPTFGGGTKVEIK
Ans. 8

Where these numbers come from: patent EP4725969A1
